ASSAY_OVERVIEW: Mouse PK study (IV and PO), plasma parent compound and psilocin by LC-MS/MS
Assay type: in vivo
MEASUREMENT_CONDITIONS: male, C57Bl/6, mouse, plasma, oral, 3 mg/kg, 3 mg/kg oral C(I); 0.25 h; per animal; BLQ <0.5 ng/mL; read-out: Plasma concentration of C(I)
OUTCOME_MEASURE: concentration at 0.25 h

Asked: Determine from records and report concentration at 0.25 h for CN(C)CCc1c[nH]c2cccc(OC(=O)c3ccc(Br)cc3)c12
Given back: 1.62 ng/mL

====

ASSAY_OVERVIEW: Mouse PK study (IV and PO), plasma parent compound and psilocin by LC-MS/MS
Type: in vivo
MEASUREMENT_CONDITIONS: male, C57Bl/6, mouse, plasma, po, 10 mg/kg, C(I) in plasma; 10 mg/kg oral C(I); Mean ± SD; read-out: AUC0-tlast
OUTCOME_MEASURE: AUC(0-t)
Kindly write the number and append the unit.

Asked: Determine from records and report AUC(0-t) for CN(C)CCc1c[nH]c2cccc(OC(=O)c3ccc(Br)cc3)c12
Given back: 18.7 ng·h/mL
